These data points were gathered from patent US20250197448A1.

- TESTED_TARGET: streptavidin (UniProt P22629 37-163, limits assumed)
- Sequence (P22629 37-163 limits assumed): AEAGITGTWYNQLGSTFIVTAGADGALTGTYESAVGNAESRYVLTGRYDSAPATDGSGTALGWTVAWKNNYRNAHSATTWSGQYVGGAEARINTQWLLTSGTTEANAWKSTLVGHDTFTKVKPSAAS
- ASSAY_DETAILS: plate binding assay: streptavidin-coated plate, FLAG-tagged binder titrated, HRP anti-FLAG detection, 1:1 isotherm fit
- Experimental: The resulting cyclopeptibody (called Strep-m3-Tras-Fc) was expressed, purified, and characterized as described in Example 4. […] Streptavidin Binding Assay. […] After washing three times with wash buffer, 100 μL of 2.2 mM o-phenylenediamine dihydrochloride, 4.2 mM urea hydrogen peroxide, 100 mM dibasic sodium phosphate, and 50 mM sodium citrate, pH 5.0, were added to each well, followed by measurement of the absorbance at 450 nm after 10-20 min using a Tecan Infinite 1000 plate reader. […]
Starred links: 1 amine or outer side, 2 acyl side, 3 side chain; linkers in the order of their positions; H or OH if unused. Positions of bridges follow the written chain, without caps; N, C: chain ends. Non-standard residues stand in square brackets, D forms with d. No end group written: not given here. O2beY = O-(2-bromoethyl)-tyrosine (p-2beF), reacts with Cys to form a thioether, O=C([C@H](Cc1ccc(OCCBr)cc1)N[*:1])[*:2]
For each record, write down the corresponding pKd.
Just the number, please; pKd means minus log10 of the concentration in mol/L.

Input: Note pKd for the binder shown: SCWWHPQGD[O2beY] (thioether 2-10; also: as CBD fusion) [cyclic peptide Strep-m3 alone (as CBD fusion)]
Output: 7.30

Input: Note pKd for the binder shown: DYKDDDDKGSGSSCWWHPQGD[O2beY]QQQQQQ-{Fc-H6} (Fc fusion, thioether 14-22; also: dimeric through the Fc, Cyclic peptide fused through a (Gln)6 spacer to human IgG1 Fc; dimeric through the Fc; made in E. coli; also called FLAG-(GS)2-SCWWHPQGDZ-(Q)6-(Fc)^1-H6) [Strep-m3-Tras-Fc]
Output: 7.43
